From: PubChem BioAssay AID1851

# system.tested: Cytochrome P450 2C19 (Homo sapiens)
# assay.procedure: Cytochrome panel assay with activity outcomes
# test.conditions: recombinant CYP, pro-luciferin dealkylation, luminescence, p450-cyp2c19; series mostly up to 57.1 µM
The campaign covered roughly 16,000 compounds. About 5,800 (36%) were called active. Not shown: some 23% with an inconclusive outcome. Some of the results follow.
measured.parameter: AC50

entry.smiles: COC(=O)c1ccc(N2CCN(c3ccccc3)CC2)c(NC(=O)C2CC2)c1
system.tested: Cytochrome P450 2C19 (Homo sapiens)
measured.parameter: AC50
measurement: inactive
--
entry.smiles: NC(=O)N1c2ccccc2C=Cc2ccccc21
system.tested: Cytochrome P450 2C19 (Homo sapiens)
measured.parameter: AC50
measurement: inactive
--
entry.smiles: COC(=O)N1CCC[C@@]2(CCN(C(=O)Nc3cccc(C#N)c3)C2)C1
system.tested: Cytochrome P450 2C19 (Homo sapiens)
measured.parameter: AC50
measurement: inactive
--
entry.smiles: CCOC(=O)CSc1n[nH]c(NC(=O)c2cccc(C)c2)n1
system.tested: Cytochrome P450 2C19 (Homo sapiens)
measured.parameter: AC50
measurement: 5.01 µM (active)
--
entry.smiles: Cc1cc(C)n(-c2cc(N3CCN(C(=O)c4ccc(C(C)(C)C)cc4)CC3)ccc2[N+](=O)[O-])n1
system.tested: Cytochrome P450 2C19 (Homo sapiens)
measured.parameter: AC50
measurement: 2.82 µM (active)

----------
# system.tested: Cytochrome P450 2C19 (Homo sapiens)
# assay.procedure: Cytochrome panel assay with activity outcomes
# test.conditions: recombinant CYP, pro-luciferin dealkylation, luminescence, p450-cyp2c19; series mostly up to 57.1 µM
Screen size: about 16,000 compounds; about 5,800 (36%) were called active. Another 23% or so got no clear call; they are omitted. Calls come from the whole dose curve; as a rule, active = well fitted curve in the direction sought with a large enough effect; inconclusive = small, poorly fitted or top-dose-only effect, or effect the other way; inactive = no such curve, though single readings can be large or run the other way. This is one part of the list.
Outcome codes: true (active), false (inactive)

compound: CCSc1nnc(-c2ccc(Cl)cc2)c2ccccc12
class.assignment: true
--
compound: Cc1ccn2cc(CSc3ccccc3N)nc2c1
class.assignment: true
--
compound: Cc1cccc(CN(C)CCc2ccccn2)c1
class.assignment: true
--
compound: Cc1noc(C)c1C(=O)N1CCC2(CCCN(C(c3ccccc3)c3ccccc3)C2)CC1
class.assignment: false
--
compound: COC(=O)c1c(NC(C)=O)sc(Cc2ccccc2)c1C
class.assignment: true
--
compound: CCOc1cc(CC(=O)N[C@@H](CC(C)C)c2ccccc2N2CCCCC2)ccc1C(=O)O
class.assignment: false
--
compound: CN(Cc1ccco1)c1nc(-c2ccccc2C(F)(F)F)nc2ccccc12
class.assignment: true
--
compound: O=C(c1ccncc1)N1CCC2(CCCN(C(c3ccccc3)c3ccccc3)C2)CC1
class.assignment: true
--
compound: CN(C)CCNC(=O)c1cc(Br)ccc1Cl
class.assignment: false
--
compound: CCNc1ncc2nc(-c3ccc(Cl)cc3)c(=O)n(-c3ccccc3)c2n1
class.assignment: false
--
compound: O=C(c1ccncc1)N1CCC2(CC1)CN(C(c1ccccc1)c1ccccc1)C2
class.assignment: false
--
compound: COc1ccc(O[C@H]2C=C[C@@H](c3ccccc3)O[C@@H]2CO/N=C(\C)CCN2CCCc3nc(C)c(C)cc32)cc1
class.assignment: true
--
compound: COc1ccc(O[C@H]2C=C[C@@H](c3ccccc3)O[C@@H]2CO/N=C(\C)CCN2CCc3nc(-c4ccccc4)c(-c4ccccc4)cc3C2)cc1
class.assignment: true
--
compound: CC(C)(C)C1CCC(OCC(O)CN2CCN(c3ccccc3)CC2)CC1 (configuration not stated)
class.assignment: false
--
compound: OC(COCC1COc2ccccc2O1)CN1CCc2ccccc2C1 (configuration not stated)
class.assignment: true
--
compound: CN(C)Cc1ccccc1-c1nc(N(C)Cc2ccco2)c2ccccc2n1
class.assignment: false
--
compound: CCc1c(C)sc(NC(=O)OC)c1C(N)=O
class.assignment: false
--
compound: CN(CCc1ccccn1)Cc1ccc(Cl)cc1Cl
class.assignment: true
--
compound: CSc1ccc(Cl)c(C(=O)NCCOc2cc(C)ccc2C(C)C)c1
class.assignment: true
--
compound: NC/C=C\C(=O)O
class.assignment: false
--
compound: C/C(CCN1CCc2nc(-c3ccccc3)c(-c3ccccc3)cc2C1)=N\OC[C@@H](C)[C@H](OCc1ccccc1)C(C)C
class.assignment: true
--
compound: O=c1cc(N2CCOCC2)oc2c(-c3ccccc3)cccc12
class.assignment: false

----------
# system.tested: Cytochrome P450 2C19 (Homo sapiens)
# assay.procedure: Cytochrome panel assay with activity outcomes
# test.conditions: recombinant CYP, pro-luciferin dealkylation, luminescence, p450-cyp2c19; series mostly up to 57.1 µM
Out of some 16,000 compounds screened, about 5,800 (36%) were called active. About 23% were inconclusive and are not listed. The list shows a part of the results.

compound: CC1(C)CC(=O)C2=C(C1)Nc1cc3c(cc1C2c1ccc(F)cc1)OCO3 (centres undefined)
AC50: 4.47 µM (active)
--
compound: C#C[C@@]1(O)CC[C@@H]2[C@@H]3CCC4=CC(=O)CC[C@@H]4[C@H]3CC[C@]21C
AC50: 5.01 µM (active)
--
compound: C#C[C@]1(O)CC[C@@H]2[C@H]3CCC4=CCCC[C@@H]4[C@@H]3CC[C@@]21C
AC50: 3.98 µM (active)
--
compound: OC[C@@H]1O[C@@H](n2cnc3c(N[C@H]4CCC[C@@H]4O)ncnc32)[C@H](O)[C@H]1O
AC50: inactive
--
compound: O=C(NC[C@@H](O)CO)c1c(I)c(C(=O)NC[C@@H](O)CO)c(I)c(N(CCO)C(=O)CO)c1I
AC50: inactive
--
compound: Cc1cccc(OCCSCc2nc3ccccc3[nH]2)c1
AC50: 2.24 µM (active)
--
compound: Fc1ccc([C@H]2CCNC[C@H]2COc2ccc3c(c2)OCO3)cc1
AC50: inactive
--
compound: COC(=O)Nc1nc2ccc(C(=O)c3cccs3)cc2[nH]1
AC50: inactive
--
compound: C[C@@]12CCC(=O)C=C1CC[C@@H]1[C@@H]2[C@H](O)C[C@]2(C)[C@@H]1CC[C@]2(O)C(=O)COC(=O)CCC(=O)O
AC50: inactive

----------
# system.tested: Cytochrome P450 2C19 (Homo sapiens) (UniProt P33261)
# Sequence (P33261 whole entry, looked up): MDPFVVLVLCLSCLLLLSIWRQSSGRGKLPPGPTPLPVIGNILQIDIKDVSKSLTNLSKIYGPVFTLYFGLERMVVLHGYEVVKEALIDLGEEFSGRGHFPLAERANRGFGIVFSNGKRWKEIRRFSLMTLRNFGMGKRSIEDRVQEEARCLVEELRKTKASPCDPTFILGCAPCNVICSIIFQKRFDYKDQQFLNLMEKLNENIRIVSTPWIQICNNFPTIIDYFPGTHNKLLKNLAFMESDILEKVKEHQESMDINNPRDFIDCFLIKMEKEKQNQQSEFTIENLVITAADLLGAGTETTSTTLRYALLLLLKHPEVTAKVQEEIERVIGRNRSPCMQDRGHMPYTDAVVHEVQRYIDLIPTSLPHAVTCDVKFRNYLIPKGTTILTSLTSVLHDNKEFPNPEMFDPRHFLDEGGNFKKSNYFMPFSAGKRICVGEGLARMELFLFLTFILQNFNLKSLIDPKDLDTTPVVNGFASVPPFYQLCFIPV
# assay.procedure: Cytochrome panel assay with activity outcomes
# test.conditions: recombinant CYP, pro-luciferin dealkylation, luminescence, p450-cyp2c19; series mostly up to 57.1 µM
Among all 16,000 compounds or so, about 5,800 (36%) were called active. Not shown: some 23% with an inconclusive outcome. The call rests on the fitted dose curve; in most records, active means well fitted curve in the direction sought with a large enough effect; inconclusive means small, poorly fitted or top-dose-only effect, or effect the other way; inactive means no such curve, though single readings can be large or run the other way. Some of the results follow.
Classes used: active, inactive

molecule: CCN=C(Nc1cccc(F)c1)SC1CC(=O)N(c2ccc(OC)cc2)C1=O (stereo not given)
system.tested: Cytochrome P450 2C19 (Homo sapiens) (UniProt P33261)
class.assignment: active
//
molecule: CCOC(=O)NNC1CC(=O)N(c2ccc(OC)cc2)C1=O (stereo not given)
system.tested: Cytochrome P450 2C19 (Homo sapiens) (UniProt P33261)
class.assignment: inactive
//
molecule: CC(=O)Nc1ccc(N2C(=O)CC(c3ccccc3)CC2=O)cc1
system.tested: Cytochrome P450 2C19 (Homo sapiens) (UniProt P33261)
class.assignment: inactive
//
molecule: O=C(c1cc(C(F)(F)F)cc(C(F)(F)F)c1)N1CCC[C@@]2(CCN(c3ccncc3)C2)C1
system.tested: Cytochrome P450 2C19 (Homo sapiens) (UniProt P33261)
class.assignment: inactive
//
molecule: COCC(=O)N1CCC2(CC1)CCN(C(=O)Nc1cccc(F)c1)CC2
system.tested: Cytochrome P450 2C19 (Homo sapiens) (UniProt P33261)
class.assignment: inactive

----------
# system.tested: Cytochrome P450 2C19 (Homo sapiens)
# assay.procedure: Cytochrome panel assay with activity outcomes
# test.conditions: recombinant CYP, pro-luciferin dealkylation, luminescence, p450-cyp2c19; series mostly up to 57.1 µM
The whole screen tested about 16,000 compounds, of which about 5,800 (36%) were called active. Not shown: some 23% with an inconclusive outcome. Calls come from the whole dose curve; as a rule, active = well fitted curve in the direction sought with a large enough effect; inconclusive = small, poorly fitted or top-dose-only effect, or effect the other way; inactive = no such curve, though single readings can be large or run the other way. The list shows a part of the results.
Outcome codes: yes (1) = active, no (0) = inactive

molecule: Cc1cc([C@](C)(N)C(=O)O)ccc1P(=O)(O)O
class.assignment: no (0)
//
molecule: COC(=O)c1ccc(NC(=O)c2cc3sccc3n2C)cc1
class.assignment: yes (1)
//
molecule: Cc1ccc(-n2c(C)nnc2SCC(=O)N2CCc3ccccc3C2)cc1C
class.assignment: yes (1)
//
molecule: Cn1c(C(=O)Nc2ccccc2)cc2sccc21
class.assignment: yes (1)
//
molecule: C[C@H](CCC(=O)NCC(=O)O)[C@H]1CC[C@H]2[C@H]3[C@@H](C[C@@H](O)[C@]12C)[C@]1(C)CC[C@H](O)C[C@@H]1C[C@@H]3O
class.assignment: no (0)
//
molecule: CSc1nc2ccccc2cc1/C=C(\C#N)c1cccc(Cl)c1
class.assignment: yes (1)
//
molecule: OC(COCc1ccccc1)Cn1cnc2ccccc21 (stereo unspecified)
class.assignment: yes (1)
//
molecule: CN(C)C(=O)Oc1cccc([N+](C)(C)C)c1
class.assignment: no (0)
//
molecule: Cc1ccc(-c2csc(N/N=C/c3ccco3)n2)cc1
class.assignment: yes (1)
//
molecule: COc1cccc(/C=N/n2nnc3c(cnn3-c3ccccc3)c2=O)c1
class.assignment: no (0)
//
molecule: COc1ccc(Oc2c(Cl)cnn(-c3ccccc3)c2=O)cc1
class.assignment: yes (1)
